Provenance of the data: patent US10399940B2

Would you kindly list EC50 for each of these compounds?
Molecular target: F508delCFTR (Homo sapiens, UniProt P13569, DEL508-508)
Construct: expressed in transfected cells; host or cells: CFBE41o- (human lung derived epithelial cell line), doxycycline-inducible expression
Sequence (P13569 with tags, fused parts or gaps DEL508-508): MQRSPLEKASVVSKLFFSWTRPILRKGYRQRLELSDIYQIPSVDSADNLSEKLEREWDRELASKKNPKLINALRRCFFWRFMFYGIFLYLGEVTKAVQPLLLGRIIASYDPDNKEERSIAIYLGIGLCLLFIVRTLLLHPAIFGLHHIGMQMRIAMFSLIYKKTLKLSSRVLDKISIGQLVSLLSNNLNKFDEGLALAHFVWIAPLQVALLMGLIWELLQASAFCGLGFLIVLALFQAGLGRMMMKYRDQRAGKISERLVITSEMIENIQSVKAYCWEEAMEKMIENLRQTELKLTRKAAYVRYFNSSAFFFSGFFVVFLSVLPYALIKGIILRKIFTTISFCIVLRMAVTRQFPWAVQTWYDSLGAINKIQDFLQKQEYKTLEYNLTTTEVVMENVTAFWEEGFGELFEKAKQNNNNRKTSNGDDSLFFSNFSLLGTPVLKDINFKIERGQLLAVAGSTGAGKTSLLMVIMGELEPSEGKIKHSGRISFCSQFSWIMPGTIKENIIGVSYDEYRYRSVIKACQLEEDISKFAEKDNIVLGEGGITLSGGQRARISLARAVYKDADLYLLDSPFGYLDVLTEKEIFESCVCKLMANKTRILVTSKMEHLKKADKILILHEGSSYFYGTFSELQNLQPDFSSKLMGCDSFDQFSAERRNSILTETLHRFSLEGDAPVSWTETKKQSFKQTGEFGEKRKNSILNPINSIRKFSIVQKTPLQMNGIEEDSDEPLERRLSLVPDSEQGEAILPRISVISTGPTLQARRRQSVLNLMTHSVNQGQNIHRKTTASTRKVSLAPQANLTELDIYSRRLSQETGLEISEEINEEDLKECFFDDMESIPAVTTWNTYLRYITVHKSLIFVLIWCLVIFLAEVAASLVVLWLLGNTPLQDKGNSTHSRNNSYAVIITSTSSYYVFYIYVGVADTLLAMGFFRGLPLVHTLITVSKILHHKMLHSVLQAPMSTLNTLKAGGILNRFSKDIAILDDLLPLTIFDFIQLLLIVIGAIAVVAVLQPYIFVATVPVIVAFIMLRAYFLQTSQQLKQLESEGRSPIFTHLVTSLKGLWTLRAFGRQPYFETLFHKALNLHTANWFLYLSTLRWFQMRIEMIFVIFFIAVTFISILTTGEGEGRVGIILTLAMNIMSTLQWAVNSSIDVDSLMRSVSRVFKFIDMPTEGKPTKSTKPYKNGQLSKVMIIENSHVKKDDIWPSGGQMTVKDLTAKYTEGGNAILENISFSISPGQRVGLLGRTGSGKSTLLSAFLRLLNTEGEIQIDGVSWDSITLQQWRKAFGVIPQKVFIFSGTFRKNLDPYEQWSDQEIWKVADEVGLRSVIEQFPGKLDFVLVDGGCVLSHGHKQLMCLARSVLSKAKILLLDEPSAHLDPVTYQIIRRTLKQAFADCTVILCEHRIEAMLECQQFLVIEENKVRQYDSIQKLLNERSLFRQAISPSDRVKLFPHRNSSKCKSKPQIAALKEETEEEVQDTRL
Assay: Cell Surface Expression-Horse Radish Peroxidase (CSE-HRP) assay
Assay type: cell-based
Details: CFBE41o-F508delCFTR-HRP cells; test compound without co-corrector; 18-24 hours at 33° C.; read-out: EC50 (without co-corrector)

Give EC50 for all compounds that follow.
1. COc1ncc(C(F)(F)F)cc1CO[C@H]1[C@H](C(C)(C)C)[C@@H](C(=O)O)N(C(=O)OC(C)C)[C@H]1c1ccccc1C(C)C
2. CCc1ccccc1[C@H]1[C@@H](OCc2cc3ccccc3nc2OC)[C@H](C(C)(C)C)[C@@H](C(=O)O)N1C(=O)[C@@H]1CCCCO1
3. COc1ncc(C2CCC2)cc1CO[C@H]1[C@H](C(C)(C)C)[C@@H](C(=O)O)N(C(=O)C2CCCCC2)[C@H]1c1cccnc1OC(C)C

Found:
1. 1 to 10 µM
2. 1 to 10 µM
3. 1 to 10 µM

* * *

Target: F508delCFTR (Homo sapiens, UniProt P13569, DEL508-508)
Construct: expressed in transfected cells; host or cells: CFBE41o- (human lung derived epithelial cell line), doxycycline-inducible expression
Assay: Cell Surface Expression-Horse Radish Peroxidase (CSE-HRP) assay;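 for Maximum % activity (without co-corrector): % of on-plate positive control (2 µM of the co-corrector compound) after DMSO subtraction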
Type: cell-based
Settings: CFBE41o-F508delCFTR-HRP cells; without co-corrector; normalized to on-plate positive control; highest concentration 20 μM
experimental-readout: Maximum % activity (without co-corrector)

COc1ncc(Br)cc1CO[C@H]1[C@H](C(C)(C)C)[C@@H](C(=O)O)N(C(=O)OC(C)C)[C@H]1c1ccccc1F :: ++ (≥100 and <200)
COc1cc(C(F)(F)F)ccc1CO[C@H]1[C@H](C(C)(C)C)[C@@H](C(=O)O)N(C(=O)[C@@H]2CCCCO2)[C@H]1c1ccccc1C :: +++ (≥200)
COc1ncc(C2CCC2)cc1CO[C@H]1[C@H](C(C)(C)C)[C@@H](C(=O)O)N(C(=O)OC(C)C)[C@H]1c1ccccc1C1CC1 :: ++ (≥100 and <200)
COc1ncc(C(F)(F)F)cc1CO[C@H]1[C@H](C(C)(C)C)[C@@H](C(=O)O)N(C(=O)[C@@H]2CCCO2)[C@H]1c1ccccc1Br :: + (<100)
COc1ccc(C(F)(F)F)cc1CO[C@H]1[C@H](C(C)(C)C)[C@@H](C(=O)NS(=O)(=O)N(C)C)N(C(=O)C2CCCCC2)[C@H]1c1ccccc1 :: + (<100)
COc1ncc(N2CC(F)(F)C2)cc1CO[C@H]1[C@H](C(C)(C)C)[C@@H](C(=O)O)N(C(=O)OC(C)C)[C@H]1c1ccccc1 :: + (<100)

Give Maximum % activity (without co-corrector) for all compounds that follow.
1. COc1ncc(C2CCC2)cc1CO[C@H]1[C@H](C(C)(C)C)[C@@H](C(=O)O)N(C(=O)[C@@H]2CCCO2)[C@H]1c1ccccc1C1CC1
2. COc1ncc(C2CCC2)cc1CO[C@H]1[C@H](C(C)(C)C)[C@@H](C(=O)O)N(C(=O)OC(C)C)[C@H]1c1ccccc1C(C)C
3. COc1ncc(C(F)(F)F)cc1CO[C@@H]1[C@H](C(C)(C)C)[C@@H](C(=O)O)N(C(=O)C2CCCC2)[C@H]1c1cccnc1OC(C)C
4. COc1ccc(C(F)(F)F)cc1CO[C@@H]1[C@@H](C(C)(C)C)[C@H](C(=O)O)N(C(=O)C2CCCCC2)[C@@H]1c1ccccc1
5. COc1ncc(C(F)(F)F)cc1CO[C@H]1[C@H](C(C)(C)C)[C@@H](C(=O)O)N(C(=O)[C@H]2CCCCO2)[C@H]1c1ccccc1Cl
6. COc1ccc(-c2ccccc2)cc1CO[C@H]1[C@H](C(C)(C)C)[C@@H](C(=O)O)N(C(=O)[C@@H]2CCC[C@@H](OC)C2)[C@H]1c1ccccc1

Found:
++ (≥100 and <200)
++ (≥100 and <200)
+ (<100)
+ (<100)
++ (≥100 and <200)
+++ (≥200)

Give Maximum % activity (without co-corrector) for all compounds that follow.
1. COc1ncc(C2CCC2)cc1CO[C@@H]1[C@H](C(C)(C)C)[C@@H](C(=O)O)N(C(=O)OC(C)C)[C@H]1c1ccccc1Br
2. COc1ccc(C(F)(F)F)cc1[C@H](C)CO[C@H]1[C@H](C(C)(C)C)[C@@H](C(=O)O)N(C(=O)[C@@H]2CCCCO2)[C@H]1c1ccccc1C

Found:
+ (<100)
+++ (≥200)

* * *

Target: F508delCFTR (Homo sapiens, UniProt P13569, DEL508-508)
Construct: expressed in transfected cells; host or cells: CFBE41o- (human lung derived epithelial cell line), doxycycline-inducible expression
Test: Cell Surface Expression-Horse Radish Peroxidase (CSE-HRP) assay;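 for Maximum % activity (with co-corrector): % of on-plate positive control (2 µM of the co-corrector compound) after DMSO subtraction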
Type: cell-based
Settings: CFBE41o-F508delCFTR-HRP cells; with co-corrector (2 μM); normalized to on-plate positive control; highest concentration 20 μM
Description: Cell Surface Expression-Horse Radish Peroxidase (CSE-HRP) Assay […] The maximum % activity achieved for the test compound either without or with a co-corrector at any tested concentration is presented in Table 1 along with the respective EC50's calculated using the following general sigmoidal curve with variable Hill slope equation (described as Model 42 in the Accelrys® Assay Explorer v3.3 software): y=(a−d)/(1+(x/c)^b)+d […]
experimental-readout: Maximum % activity (with co-corrector)

Examples with answers:
COc1ncc(C(F)(F)F)cc1CO[C@H]1[C@H](C(C)(C)C)[C@@H](C(=O)O)N(C(=O)[C@@H]2CCCCO2)[C@H]1c1cccc(Cl)c1 [Example 123] :: +++ (≥350)
COc1ccc(C(F)(F)F)cc1CO[C@H]1[C@H](C(C)(C)C)[C@@H](C(=O)NS(=O)(=O)N(C)C)N(C(=O)C2CCCCC2)[C@H]1c1ccccc1 [Example 25] :: ++ (≥150 and <350)
COc1ncc(C2CCC2)cc1CO[C@H]1[C@H](C(C)(C)C)[C@@H](C(=O)O)N(C(=O)[C@@H]2CCCO2)[C@H]1c1cccnc1OC(C)C [Example 133] :: +++ (≥350)
COc1ccc(C(C)(C)C)cc1CO[C@H]1[C@H](C(C)(C)C)[C@@H](C(=O)O)N(C(=O)[C@@H]2CCCCO2)[C@H]1c1ccccc1C [Example 188] :: +++ (≥350)
COc1ncc(C2CC3CCC2C3)cc1CO[C@H]1[C@H](C(C)(C)C)[C@@H](C(=O)O)N(C(=O)C2CCCCC2)[C@H]1c1ccccc1 (some centres unmarked) [Example 55] :: +++ (≥350)
COc1ncc(C(F)(F)F)cc1CO[C@H]1[C@H](C(C)(C)C)[C@@H](C(=O)O)N(C(=O)OC(C)C)[C@H]1c1ccccc1C(C)C [Example 87] :: +++ (≥350)

Give Maximum % activity (with co-corrector) for all compounds that follow.
1. COc1ncc(C(F)(F)F)cc1CO[C@H]1[C@H](C(C)(C)C)[C@@H](C(=O)O)N(C(=O)C2CCC2)[C@H]1c1cccnc1OC(C)C [Example 160]
2. COc1ncc(C(F)(F)F)cc1CO[C@H]1[C@H](C(C)(C)C)[C@@H](C(=O)O)N(C(=O)OC(C)C)[C@H]1c1ccccc1F [Example 73]
3. COc1nc2ccccc2cc1CO[C@H]1[C@H](C(C)(C)C)[C@@H](C(=O)O)N(C(=O)[C@@H]2CCCCO2)[C@H]1c1ccccc1C [Example 189]
4. COc1ncc(C2CCC2)cc1CO[C@H]1[C@H](C(C)(C)C)[C@@H](C(=O)O)N(C(=O)C2CCC2)[C@H]1c1cccnc1OC(C)C [Example 161]
5. COc1ncc(-c2ccc(C)cc2)cc1CO[C@H]1[C@H](C(C)(C)C)[C@@H](C(=O)O)N(C(=O)OC(C)C)[C@H]1c1ccccc1 [Example 71]
6. COc1ccc(-c2ccccc2)cc1CO[C@H]1[C@H](C(C)(C)C)[C@@H](C(=O)O)N(C(=O)[C@@H]2CCC[C@@H](OC)C2)[C@H]1c1ccccc1 [Example 39]

Found:
["++ (≥150 and <350)", "+++ (≥350)", "+++ (≥350)", "+++ (≥350)", "+++ (≥350)", "+++ (≥350)"]

Give Maximum % activity (with co-corrector) for all compounds that follow.
1. COc1ccc(C(F)(F)F)cc1C(=O)CO[C@H]1[C@H](C(C)(C)C)[C@@H](C(=O)O)N(C(=O)[C@@H]2CCCCO2)[C@H]1c1ccccc1C [Example 264]
2. COc1ncc(C2CCC2)cc1CO[C@H]1[C@H](C(C)(C)C)[C@@H](C(=O)O)N(C(=O)[C@@H]2CCCCO2)[C@H]1c1ccccc1C(C)C [Example 176]
3. COc1nc2c(C)ccc(C)c2cc1CO[C@H]1[C@H](C(C)(C)C)[C@@H](C(=O)O)N(C(=O)C2CCCCC2)[C@H]1c1cccnc1OC(C)C [Example 248]
4. COc1ncc(C2CCC2)cc1CO[C@H]1[C@H](C(C)(C)C)[C@@H](C(=O)NS(=O)(=O)c2cccc(N)n2)N(C(=O)[C@@H]2CCCCO2)[C@H]1c1ccccc1C1CC1 [Example 225]
5. COc1ncc(C2CCC2)cc1CO[C@H]1[C@H](C(C)(C)C)[C@@H](C(=O)O)N(C(=O)[C@@H]2CCCCO2)[C@H]1c1cccnc1OC(C)C [Example 136]
6. COc1ncc(C2CCCCC2)cc1CO[C@H]1[C@H](C(C)(C)C)[C@@H](C(=O)O)N(C(=O)OC(C)C)[C@H]1c1ccccc1 [Example 43]
7. COc1ncc(Br)cc1CO[C@H]1[C@H](C(C)(C)C)[C@@H](C(=O)O)N(C(=O)OC(C)C)[C@H]1c1ccccc1F [Example 76]
8. COc1ccc(C(F)(F)F)cc1CO[C@H]1[C@H](C(C)(C)C)[C@@H](C(=O)O)N(C(=O)[C@@H]2CCCO2)[C@H]1c1cccnc1C(F)(F)F [Example 113]

Found:
1: +++ (≥350); 2: +++ (≥350); 3: +++ (≥350); 4: ++ (≥150 and <350); 5: +++ (≥350); 6: +++ (≥350); 7: +++ (≥350); 8: ++ (≥150 and <350)

Give Maximum % activity (with co-corrector) for all compounds that follow.
1. COc1ccc(C(C)(C)C#N)cc1CO[C@H]1[C@H](C(C)(C)C)[C@@H](C(=O)O)N(C(=O)[C@@H]2CCCCO2)[C@H]1c1ccccc1C [Example 187]
2. COc1ncc(C(F)(F)F)cc1CO[C@H]1[C@H](C(C)(C)C)[C@@H](C(=O)O)N(C(=O)OC(C)C)[C@H]1c1c(F)cccc1F [Example 167]
3. COc1ncc(C2CCC2)cc1CO[C@@H]1[C@H](C(C)(C)C)[C@@H](C(=O)O)N(C(=O)OC(C)C)[C@H]1c1ccccc1Br [Example 166]

Found:
1: +++ (≥350); 2: ++ (≥150 and <350); 3: +++ (≥350)
